# systemName: cage 1 (Fe^II8L6 cubic cage with zinc porphyrin faces)
# experimentDescription: Ultraviolet-visible titration of cage 1 with guest (host-guest binding)
# runParameters: 1:1 acetonitrile:water, 20 °C, 1 at 1.5 μM, UV-Vis at 417 nm, non-cooperative 1:1 imidazole (or thiazole):porphyrin model, except G7 (2:1 peptide:1), DynaFit fit, ± formal standard error, repeated three times; read-out: Kd (μM) in CD3CN:H2O (1:1)
Please respond with reported Kd for every item in the list.
Answers are plain numbers, in µM.

INSERT INTO results (smilesrepresentation, number) VALUES
  ('c1cscn1', 1000);

# ---- query compound ----
Q. Which measured Kd value corresponds to `Cn1ccnc1` ?
A. 900
